Source listed as patent US9029404B2.

TARGET UNDER TEST: UniProt:P10415
ENDPOINT: Ki (nM)
Lab book: enter the figure in nM, no units written.

Record excerpt, results attached:
CC1(C)CCC(CN2CCN(c3ccc(C(=O)NS(=O)(=O)c4cnc(OCC5(F)CCC(C)(O)CC5)c(Cl)c4)c(Oc4cnc(N)c(Cl)c4)c3)CC2)=C(c2ccc(Cl)cc2)C1 (stereo not shown) [Example 444]: 0.018
CC1(C)CCC(CN2CCN(c3ccc(C(=O)NS(=O)(=O)c4ccc(N[C@H]5CC[C@@H](N6CCOCC6)CC5)c([N+](=O)[O-])c4)c(Oc4cnc(N)c(Cl)c4)c3)CC2)=C(c2ccc(Cl)cc2)C1 [Example 452]: 0.112
CCC1(O)CCC(CNc2ccc(S(=O)(=O)NC(=O)c3ccc(N4CCN(CC5=C(c6ccc(Cl)cc6)CC(C)(C)CC5)CC4)cc3Oc3cnc(N)c(Cl)c3)cc2[N+](=O)[O-])CC1 (stereo not shown) [Example 447]: 0.029

Please give the documented Ki of CC1(C)CCC(CN2CCN(c3ccc(C(=O)NS(=O)(=O)c4ccc(NC[C@H]5CC[C@H](C#N)CC5)c([N+](=O)[O-])c4)c(Oc4cnc(N)c(Cl)c4)c3)CC2)=C(c2ccc(Cl)cc2)C1 [Example 401]
0.035

Look up and state reported Ki for CC1(C)CC(c2ccc(Cl)cc2)=C(CN2CCN(c3ccc(C(=O)NS(=O)(=O)c4ccc(OCC5(F)CCOCC5)c(Cl)c4)c(Oc4cc5cc[nH]c5cc4F)c3)CC2)CO1 [Example 413]
0.739

Read the entry CC1(C)CCC(CN2CCN(c3ccc(C(=O)NS(=O)(=O)c4cnc(OC[C@H]5CC[C@H](O)CC5)c(Cl)c4)c(Oc4ccc(F)c5[nH]ncc45)c3)CC2)=C(c2ccc(Cl)cc2)C1 [Example 419] and write its reported Ki.
0.012

State, in one line, measured Ki of CC1(C)CCC(CN2CCN(c3ccc(C(=O)NS(=O)(=O)c4ccc(OC[C@H]5CC[C@](C)(O)CC5)c([N+](=O)[O-])c4)c(Oc4cnc(N)c(Cl)c4)c3)CC2)=C(c2ccc(Cl)cc2)C1 [Example 441]
0.054

====

TARGET UNDER TEST: GST-Bcl-2 (Homo sapiens)
Sequence (P10415 whole entry): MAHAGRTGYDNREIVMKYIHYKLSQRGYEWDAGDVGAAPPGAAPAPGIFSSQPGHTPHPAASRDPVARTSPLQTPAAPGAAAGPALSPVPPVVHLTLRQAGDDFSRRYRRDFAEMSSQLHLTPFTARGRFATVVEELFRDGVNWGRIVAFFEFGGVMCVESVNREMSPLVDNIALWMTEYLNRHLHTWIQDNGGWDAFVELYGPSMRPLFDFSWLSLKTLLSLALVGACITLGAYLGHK
TEST PROTOCOL: Time Resolved-Fluorescence Resonance Energy Transfer (TR-FRET) Bcl-2 binding assay
RECORDED CONDITIONS: competition with F-Bak peptide probe (100 nM); GST-Bcl-2 1 nM; Tb-anti-GST 1 nM; 3 hours at room temperature; Wang's equation
pKi: −log10 of the molar value.
As shown below, each of these compounds has a reported pKi value.

Answer with reported pKi of CC1(C)CCC(CN2CCN(c3ccc(C(=O)NS(=O)(=O)c4ccc(OCC5(F)CCN(C6COC6)CC5)c([N+](=O)[O-])c4)c(Oc4cnc(N)c(Cl)c4)c3)CC2)=C(c2ccc(Cl)cc2)C1
> 11.00

Recall and state the measured pKi for CC1(C)CCC(CN2CCN(c3ccc(C(=O)NS(=O)(=O)c4ccc(NC[C@H]5CC[C@H](N6CCOCC6)CC5)c([N+](=O)[O-])c4)c(Oc4cnc(N)c(Cl)c4)c3)CC2)=C(c2ccc(Cl)cc2)C1 .
> 11.00

Determine from records and report pKi for CC1(C)CCC(CN2CCN(c3ccc(C(=O)NS(=O)(=O)c4ccc(NCC5CN(C6COC6)CCO5)c([N+](=O)[O-])c4)c(Oc4cnc(N)c(Cl)c4)c3)CC2)=C(c2ccc(Cl)cc2)C1 (stereo not shown)
> 11.00

Give recorded pKi. CC1(C)CCC(CN2CCN(c3ccc(C(=O)NS(=O)(=O)c4ccc(N[C@@H]5CCN(C6COC6)C5)c([N+](=O)[O-])c4)c(Oc4cnc(N)c(Cl)c4)c3)CC2)=C(c2ccc(Cl)cc2)C1
10.96

Fill in pKi for record CC1(C)CCC(CN2CCN(c3ccc(C(=O)NS(=O)(=O)c4cnc(NCC5CCOCC5)c([N+](=O)[O-])c4)c(Oc4cnc(N)c(Cl)c4)c3)CC2)=C(c2ccc(Cl)cc2)C1
> 11.00
